- Target Of Assay: T1, human IL-17A (human, UniProt Q16552 24-155)
- T1 construct: secreted form (GenBank U32659) expressed in Hek293 with C-terminal 6-His; also called hIL-17A; IL-17A-6HIS
- T1 sequence (Q16552 other isoform, or with tags, fused parts or gaps): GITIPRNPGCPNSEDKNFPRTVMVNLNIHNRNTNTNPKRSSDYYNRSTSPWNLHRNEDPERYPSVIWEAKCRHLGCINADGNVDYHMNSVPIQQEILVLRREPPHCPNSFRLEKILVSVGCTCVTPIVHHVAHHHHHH
- Test Summary: ELISA, coated IL-17A
Quantity: OD
Reply with a number, then the unit it belongs to.

Here are 5 binders together with their reported answers.
{"Binder": "24G10 (VHH, Class 3) VHH: EVQLVESGGGLVQAGGSLRLSCGAAGGTFSSYATGWFRQAPGKEREFVAVFRWSDSHTAYADSVKGRFTISRDGAKNTLYLQMSSLKPEDTAIYYCTTATRPGEWDYWGQGTQVTVSS", "Measured": "0.009 OD"}
{"Binder": "17C01 (VHH, Class 4) VHH: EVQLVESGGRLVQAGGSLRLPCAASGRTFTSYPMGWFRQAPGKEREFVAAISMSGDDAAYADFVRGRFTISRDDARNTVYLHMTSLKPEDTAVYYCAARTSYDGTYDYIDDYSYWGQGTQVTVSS", "Measured": "1.83 OD"}
{"Binder": "02A08 (VHH, Class 2) VHH: EVQLVESGGGVVQPGGSLRLSCADSERSFSFNAMGWFRQAPGKEREFVAAISATGDDTYYADSVKGRFAISRDTARNTVYLQMNSLKPEDTAVYYCGARVNFDGTVSYTNDYAYWGQGTQVTVSS", "Measured": "1.95 OD"}
{"Binder": "24B08 (VHH, Class 3) VHH: EVQLVESGGGLVQAGGSLRLSCAVSGGTFSTYKMGWFRQAPGKEREIVARISTNGPTAYAEFVKGRFTVSRENTKNTVYLQMNSLNIEDTAVYYCAAGYDSLFAGYDYWGQGTQVTVSS", "Measured": "0.103 OD"}
{"Binder": "11A06 (VHH, Class 2) VHH: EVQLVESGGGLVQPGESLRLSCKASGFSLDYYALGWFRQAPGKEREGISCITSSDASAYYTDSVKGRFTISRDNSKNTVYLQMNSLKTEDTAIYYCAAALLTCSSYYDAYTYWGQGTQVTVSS", "Measured": "1.69 OD"}

### Prompt For 13B03 (VHH, Class 4; also called IL17MS13B03) VHH: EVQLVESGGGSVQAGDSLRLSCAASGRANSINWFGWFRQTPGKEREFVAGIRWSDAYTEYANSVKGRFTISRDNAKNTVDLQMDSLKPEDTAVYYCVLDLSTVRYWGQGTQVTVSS , what is its reported OD?
### Response 1.95 OD
